Test system: LOX IMVI
Assay: NCI tumour cell line growth inhibition, 48 h
Calls of active or inactive are those of the source. Rule as the data show it: active = GI50 up to about 1.1 µM and inactive = higher.
Would you mind answering with one of these outcomes? active, inactive

{"compound": "CC(=O)/C(C)=N/NC(=O)c1ccccc1O", "targetSystem": "LOX IMVI", "classLabel": "inactive"}
{"compound": "CC(=O)OC1COC(N2C(=O)C(=O)c3cc(Br)c([N+](=O)[O-])cc32)C(OC(C)=O)C1OC(C)=O (stereo not given)", "targetSystem": "LOX IMVI", "classLabel": "inactive"}
{"compound": "O=C(c1ccccc1)N1CCC(Nc2nccs2)O1 (stereo not given)", "targetSystem": "LOX IMVI", "classLabel": "inactive"}
{"compound": "COc1cc2c3c(c1O)C1(C=CC(=O)C=C1)CC3N(C)CC2 (stereo not given)", "targetSystem": "LOX IMVI", "classLabel": "inactive"}
{"compound": "Cc1cccc2nc3cccc(C(=O)NCCC[N+](C)(CCCNC(=O)c4cccc5nc6cccc(C)c6nc45)Cc4ccc([N+](=O)[O-])n4C)c3nc12", "targetSystem": "LOX IMVI", "classLabel": "active"}

What did this assay record as the result for `COc1ccccc1NC(=O)O/N=C(/Cl)C(C)C` ?
inactive

What did this assay record as the result for COc1ccc(C2C3=C(COC3=O)Oc3cc4c(cc32)OCO4)cc1OC (stereo not given) ?
active

What did this assay record as the result for `C=C(CCC/C(C)=C/C=C/[C@]1(C)CCCc2ccoc21)CC(=O)O` ?
inactive

What did this assay record as the result for O=C1C2Nc3ccccc3SC2C(=O)N1c1ccc(Br)cc1 (stereo not given) ?
inactive

What did this assay record as the result for COc1ccc(C2ON(c3ccccc3)CC=C2C)cc1 (stereo not given) ?
inactive

====

System: UACC-257
Experiment: NCI tumour cell line growth inhibition, 48 h
Calls of active or inactive are those of the source. Cut-off read from the data, not from the text of the source: active = GI50 up to about 1.1 µM and inactive = higher.
experimentalReadout: GI50

{"compound": "Cn1ncc2c(NCCc3ccccc3)nc(Cl)nc21", "GI50": "2.48 µM (inactive)"}

Tell me reported GI50 for `c1ccc(C2=NN(c3nc4ccccc4s3)C3(CCCCC3)N2)nc1` , tested with UACC-257.
16.7 µM (inactive)

Tell me reported GI50 for `Cn1c(=O)c2c(no[n+]2[O-])c2ccccc21` , tested with UACC-257.
15.3 µM (inactive)

Tell me reported GI50 for CC(C)[Si](OC1=C(c2ccccc2)C(NC(=O)/C=C/c2ccc([N+](=O)[O-])cc2)CCC1)(C(C)C)C(C)C (stereo not drawn) , tested with UACC-257.
> 100 µM (inactive)

Tell me reported GI50 for `CC(=O)Oc1ccn2nc(C)c(Br)c2c1` , tested with UACC-257.
36.2 µM (inactive)

Tell me reported GI50 for `C[n+]1cccc(NC(=O)c2ccc(NC(=O)C34CCC(C(=O)Nc5ccc(C(=O)Nc6ccc[n+](C)c6)cc5)(CC3)CC4)cc2)c1` , tested with UACC-257.
15.7 µM (inactive)

Tell me reported GI50 for `COc1ccc([I+]c2ccc(OC)cc2)cc1` , tested with UACC-257.
11.6 µM (inactive)

Tell me reported GI50 for Cc1ccc(S(=O)(=O)OC2C(C3COC(C)(C)O3)OC3OC(C)(C)OC32)cc1 (stereo not drawn) , tested with UACC-257.
> 100 µM (inactive)

Tell me reported GI50 for CC1(C)CCCC2OC2CCC(C)(C)C1=O (stereo not drawn) , tested with UACC-257.
> 100 µM (inactive)

====

Test system: SN12C
Assay: NCI tumour cell line growth inhibition, 48 h
Activity calls are given as the source filed them. Cut-off read from the data, not from the text of the source: active = GI50 up to about 1.1 µM and inactive = higher.
experimentalReadout: GI50

Solved cases below.
{"molecule": "O=S1(=O)OCCOS(=O)(=O)C1I", "GI50": "> 100 µM (inactive)"}
{"molecule": "COc1ccc2c3c(c(=O)n(C)c2c1OC)C=CC(C)(C)O3", "GI50": "12.7 µM (inactive)"}
{"molecule": "O=c1c2cccnc2n2n1Cc1ccccc1C2", "GI50": "> 100 µM (inactive)"}
{"molecule": "Cc1cccc(/C(Br)=C2/OC(=O)c3ccccc32)c1", "GI50": "> 100 µM (inactive)"}
{"molecule": "CC(CCC(=O)O)(c1cc(Br)c(O)c(Br)c1)c1cc(Br)c(O)c(Br)c1", "GI50": "> 100 µM (inactive)"}
{"molecule": "CC(C)(C)C1=CC(O)(c2c3ccccc3c(C3(O)C=C(C(C)(C)C)C(=O)C(C(C)(C)C)=C3)c3ccccc23)C=C(C(C)(C)C)C1=O", "GI50": "> 100 µM (inactive)"}
{"molecule": "O=C1CCNC/C1=C\\c1ccccc1", "GI50": "34.5 µM (inactive)"}
{"molecule": "CCCCCC/C=C\\CCCCCCCCC(=O)c1cccc(OC)c1OC", "GI50": "> 100 µM (inactive)"}

Form field: reported GI50 of NC(CCSCC(F)F)C(=O)O (stereo not drawn)
> 100 µM (inactive)

Form field: reported GI50 of `O=C(COc1ccc(OCC(=O)N2C(=O)CC(=O)N(c3ccc(Cl)cc3)C2=S)cc1)N1C(=O)CC(=O)N(c2ccc(Cl)cc2)C1=S`
42 µM (inactive)

Form field: reported GI50 of `Cn1c2ccccc2c(=O)c2c(O)cc3c(c21)C=CC(C)(C)O3`
> 25 µM (inactive)

Form field: reported GI50 of C[C@H]1[C@@H]2C[C@@H]3O[C@@]34[C@H]3CCC5Cc6nc7c(nc6C[C@@]5(C)[C@]3(O)CC(=O)[C@@]24CO[C@]12OC(C)(C)C[C@@H]2O)CC1CC[C@@H]2C3=C[C@H]4O[C@@]5(OC(C)(CO)C[C@@H]5O)[C@H](C)[C@@]4(O)[C@]3(C)[C@@H](O)CC2[C@]1(C)C7 (stereo partly drawn)
> 3.52 µM (inactive)

Form field: reported GI50 of CC(=O)Nc1ccc(/C=C/C(=O)N2CC(CCl)c3c2cc(N)c2ccccc32)cc1 (stereo not drawn)
< 0.005 µM (active)

====

Tested on: HCT-116
Assay: NCI tumour cell line growth inhibition, 48 h
Calls of active or inactive are those of the source. No stated cut-off is given here; in the data, active = GI50 up to about 1.1 µM and inactive = higher.
experimentalReadout: GI50

{"compound": "CCOC(=O)c1cc(C)nc2c1c(=O)n(-c1ccccc1)c(=O)n2CCCCN1CCN(c2ncccn2)CC1", "targetSystem": "HCT-116", "GI50": "85.5 µM (inactive)"}
{"compound": "CCC1CN2CCC1CC2 (stereo not given)", "targetSystem": "HCT-116", "GI50": "> 100 µM (inactive)"}
{"compound": "OC1CCN(c2c3ccccc3nc3ccccc23)CC1", "targetSystem": "HCT-116", "GI50": "4.84 µM (inactive)"}

Tell me reported GI50 for `C/C(=N\NC(=S)NCc1ccccc1)c1nc2cccnc2[nH]1` , tested with HCT-116.
3.69 µM (inactive)

Tell me reported GI50 for O=C1CSC2=NC3=C(CSC/C3=C\c3ccccc3)C(c3ccccc3)N12 (stereo not given) , tested with HCT-116.
50.2 µM (inactive)

Tell me reported GI50 for `CC(=O)Oc1ccccc1C(=O)O` , tested with HCT-116.
> 100 µM (inactive)

Tell me reported GI50 for CC1CCC2(C(=O)O)CCC3(C)C(=CCC4C5(C)CC(O)C(O)C(C)(CO)C5C(O)CC43C)C2C1C (stereo not given) , tested with HCT-116.
5.65 µM (inactive)

Tell me reported GI50 for `COc1ccc(C=O)cc1Oc1ccc(C[C@H]2c3c(cc(OC)c4c3Oc3cc5c(cc3O4)CCN(C)C5=O)CCN2C)cc1` , tested with HCT-116.
7.05 µM (inactive)

====

System: BT-549
Assay: NCI tumour cell line growth inhibition, 48 h
Calls of active or inactive are those of the source. Cut-off read from the data, not from the text of the source: active = GI50 up to about 1.1 µM and inactive = higher.
# maps each entry to its GI50

{"compound": "NS(=O)(=O)c1ccc(NCc2nc3ccccc3[nH]2)cc1", "result": "> 100 µM (inactive)"}
{"compound": "C=C(CCC/C(C)=C/C=C/[C@]1(C)CCCc2ccoc21)CC(=O)O", "result": "79.1 µM (inactive)"}
{"compound": "O=C(O)c1ccc(Nc2nc3cc(C(F)(F)F)ccc3nc2-c2ccccc2)cc1", "result": "62.5 µM (inactive)"}

Form field: reported GI50 of `C[C@]12CC[C@H](O)CC1=CC[C@@H]1[C@@H]2CC[C@]2(C)/C(=N/OCCN3CCCC3)CC[C@@H]12`
16.3 µM (inactive)

Form field: reported GI50 of Cc1ccc(N2C(=O)CC(=O)N(NC(=O)C(C)Oc3ccccc3C)C2=S)cc1 (stereo not given)
> 100 µM (inactive)

Form field: reported GI50 of `N#Cc1c(-c2ccc(Cl)cc2)cc(-c2ccc(Nc3ccnc4cc(Cl)ccc34)cc2)[nH]c1=O`
19.6 µM (inactive)

====

Tested on: DLD-1
Test: NCI tumour cell line growth inhibition, 48 h
Active and inactive are the calls of the source. Cut-off read from the data, not from the text of the source: active = GI50 up to about 1.1 µM and inactive = higher.
experimentalReadout: GI50

{"compound": "CCCCCCCCCCCCCC(=O)CSCCNC(=O)CCNC(=O)[C@@H](O)C(C)(C)COP(=O)(O)OP(=O)(O)OCC1OC(n2cnc3c(N)ncnc32)C(O)C1OP(=O)(O)O (some centres not stated)", "GI50": "19 µM (inactive)"}
{"compound": "COc1cc(/C=C(\\C#N)C(=O)c2ccccc2)cc(OC)c1OC", "GI50": "> 100 µM (inactive)"}
{"compound": "CN(CC(=O)O)S(=O)(=O)c1ccc(F)cc1", "GI50": "> 100 µM (inactive)"}

Form field: reported GI50 of NC(CCSCC(F)F)C(=O)O (configuration not stated)
> 100 µM (inactive)

Form field: reported GI50 of CC(C)CCC1CC2C(=O)N(c3ccccc3)C(=O)C2c2[nH]c3ccccc3c21 (configuration not stated)
2.18 µM (inactive)

Form field: reported GI50 of `COc1ccc2c3ccc4c(c3n(C)c2c1)C(=O)c1ccccc1C4=O`
> 100 µM (inactive)

Form field: reported GI50 of `c1ccc(CN2COc3c(ccc4c5c(ccc34)CN(Cc3ccccc3)CO5)C2)cc1`
> 100 µM (inactive)
